// values below are reported % Max PAC-1
- assayed-system: PAR4 (Homo sapiens)
- Construct: 60 μL of washed platelets (Tyrodes buffer containing 0.1% BSA); endogenous in cells
- Sequence (Q96RI0 18-385): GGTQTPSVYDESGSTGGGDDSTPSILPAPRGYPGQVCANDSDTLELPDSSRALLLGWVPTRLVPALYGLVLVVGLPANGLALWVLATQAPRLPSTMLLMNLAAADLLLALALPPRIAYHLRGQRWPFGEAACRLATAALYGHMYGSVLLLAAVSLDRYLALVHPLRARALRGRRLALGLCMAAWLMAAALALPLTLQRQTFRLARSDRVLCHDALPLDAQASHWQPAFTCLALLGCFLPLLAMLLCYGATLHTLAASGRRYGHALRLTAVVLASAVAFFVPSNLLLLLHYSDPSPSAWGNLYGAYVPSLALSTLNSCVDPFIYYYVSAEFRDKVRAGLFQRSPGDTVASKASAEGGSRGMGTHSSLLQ
- assay-text: PAC-1 Binding assay (antagonism of PAR4 mediated αIIBβ3 activation, flow cytometry)
- Assay type: cell-based
- condition-parameters: washed platelets; 100% response = DMSO treated control stimulated with 200 μM PAR4-AP; mean values
value-kind: % Max PAC-1 (%)

{"molecular-string": "COc1ccc(-c2c(CO)n(Cc3ccccc3)c3cc(OC(C)C)ccc23)cn1", "assayed-system": "PAR4 (Homo sapiens)", "unit-tag": "%", "readout-number": 81.76}
{"molecular-string": "COc1ccc(-c2c(CO)n(Cc3cccc(Br)c3)c3cc4c(cc23)OCO4)cn1", "assayed-system": "PAR4 (Homo sapiens)", "unit-tag": "%", "readout-number": 96.5}
{"molecular-string": "COc1ccc(-c2c(CO)n(Cc3cccc(Cl)c3)c3cc4c(cc23)OCO4)cn1", "assayed-system": "PAR4 (Homo sapiens)", "unit-tag": "%", "readout-number": 100.1}
{"molecular-string": "COc1ccc(-c2c(CO)[nH]c3ccc(OC(F)(F)F)cc23)cn1", "assayed-system": "PAR4 (Homo sapiens)", "unit-tag": "%", "readout-number": 116.1}

---

- assayed-system: PAR4 (Homo sapiens)
- Construct: 60 μL of washed platelets (Tyrodes buffer containing 0.1% BSA); endogenous in cells
- assay-text: PAC-1 Binding assay (antagonism of PAR4 mediated αIIBβ3 activation, flow cytometry)
- condition-parameters: washed platelets stimulated with PAR4-AP; PAC-1 binding; sigmoidal dose response, variable slope
value-kind: IC50 (nM)

{"compound": "COc1ncc(-c2c(CO)n(Cc3ccccc3Cl)c3ccc(OC(F)(F)F)cc23)cn1 [Example B54]", "readout-relation": "=", "readout-number": 2900}
{"compound": "OCc1c(-c2ccc(F)nc2)c2cc(OC(F)(F)F)ccc2n1Cc1ccccc1Cl [Example B57]", "readout-relation": "=", "readout-number": 1290}
{"compound": "COc1ccc2c(-c3cnc(SC)nc3)c(CO)n(Cc3ccccc3Cl)c2c1 [Example B60]", "readout-relation": "=", "readout-number": 4300}
{"compound": "CSc1ncc(-c2c(CO)n(Cc3ccccc3Cl)c3cc(OC(F)(F)F)ccc23)cn1 [Example B71]", "readout-relation": "=", "readout-number": 162}
{"compound": "COc1ccc2c(-c3ccc(OC)nc3)c(CO)n(Cc3ccccc3Cl)c2c1 [Example B59]", "readout-relation": "=", "readout-number": 1350}
{"compound": "COc1ccc(-c2c(CO)n(Cc3ccccc3)c3cc(OC(F)(F)F)ccc23)cn1 [Example B62]", "readout-relation": "=", "readout-number": 3710}
{"compound": "CCOc1ccc2c(-c3ccc(OC)nc3)c(CO)n(Cc3ccccc3Cl)c2c1 [Example B61]", "readout-relation": "=", "readout-number": 3840}
{"compound": "COc1ncc(-c2c(CO)n(Cc3ccc(F)cc3F)c3ccc(OC(F)(F)F)cc23)cn1 [Example B56]", "readout-relation": ">", "readout-number": 10000}
{"compound": "COc1ccc(-c2c(CO)n(Cc3ccccc3Cl)c3cc(OC(F)(F)F)ccc23)cn1 [Example B65]", "readout-relation": "=", "readout-number": 966}
{"compound": "CSc1ncc(-c2c(CO)n(Cc3ccccc3Cl)c3cc(OC(C)C)ccc23)cn1 [Example B64]", "readout-relation": "=", "readout-number": 1380}
{"compound": "CCOc1ccc2c(-c3cnc(SC)nc3)c(CO)n(Cc3ccccc3Cl)c2c1 [Example B63]", "readout-relation": "=", "readout-number": 2150}
